The measured values listed here are drawn from ChEMBL document CHEMBL1134286.

Test system: Staphylococcus aureus
Assay: Minimum inhibitory concentration against Staphylococcus aureus ATCC 6538PEry-S
Assay type: functional
Settings: ATCC 6538P
Below, each of the compounds is paired with its reported MIC value.
Could you give me the number in µg/mL? Just the number is fine.

CC[C@H]1OC(=O)[C@H](C)C(=O)[C@H](C)[C@@H](O[C@@H]2O[C@H](C)C[C@H](N(C)C)[C@H]2O)[C@](C)(OC/C=C/c2cnc3ncccc3c2)C[C@@H](C)C(=O)[C@H](C)[C@H]2NC(=O)O[C@@]21C    0.05
CC[C@H]1OC(=O)[C@H](C)C(=O)[C@H](C)[C@@H](O[C@@H]2O[C@H](C)C[C@H](N(C)C)[C@H]2O)[C@](C)(OCCNCCCc2cnc3ccccc3c2)C[C@@H](C)C(=O)[C@H](C)[C@H]2NC(=O)O[C@@]21C    0.2
CC[C@H]1OC(=O)[C@H](C)C(=O)[C@H](C)[C@@H](O[C@@H]2O[C@H](C)C[C@H](N(C)C)[C@H]2O)[C@](C)(OC/C=C/c2ccccc2)C[C@@H](C)C(=O)[C@H](C)[C@H]2NC(=O)O[C@@]21C    0.1
CC[C@H]1OC(=O)[C@H](C)C(=O)[C@H](C)[C@@H](O[C@@H]2O[C@H](C)C[C@H](N(C)C)[C@H]2O)[C@](C)(OCCNCCCc2ccccc2)C[C@@H](C)C(=O)[C@H](C)[C@H]2NC(=O)O[C@@]21C    0.2
C=CCO[C@]1(C)C[C@@H](C)C(=O)[C@H](C)[C@@H](O)[C@](C)(O)[C@@H](CC)OC(=O)[C@H](C)[C@@H](O[C@H]2C[C@@](C)(OC)[C@@H](O)[C@H](C)O2)[C@H](C)[C@H]1O[C@@H]1O[C@H](C)C[C@H](N(C)C)[C@H]1O    0.78

input: Value lookup for MIC; key = `CC[C@H]1OC(=O)[C@H](C)C(=O)[C@H](C)[C@@H](O[C@@H]2O[C@H](C)C[C@H](N(C)C)[C@H]2O)[C@](C)(OC/C=C/c2cccc3ccccc23)C[C@@H](C)C(=O)[C@H](C)[C@H]2NC(=O)O[C@@]21C`
output: 0.1

input: Given the compound `CC[C@H]1OC(=O)[C@H](C)C(=O)[C@H](C)[C@@H](O[C@@H]2O[C@H](C)C[C@H](N(C)C)[C@H]2O)[C@](C)(OC/C=C/c2cnc3ccccc3c2)C[C@@H](C)C(=O)[C@H](C)[C@H]2N(N)C(=O)O[C@]12C` , what is its reported MIC?
output: 0.1

input: Given `CC[C@H]1OC(=O)[C@H](C)[C@@H](O[C@H]2C[C@@](C)(OC)[C@@H](O)[C@H](C)O2)[C@H](C)[C@@H](O[C@@H]2O[C@H](C)C[C@H](N(C)C)[C@H]2O)[C@](C)(O)C[C@@H](C)C(=O)[C@H](C)[C@@H](O)[C@]1(C)O` , state its recorded MIC.
output: 0.2

* * *

Assay: Minimum inhibitory concentration against Streptococcus pyogenes 930MLSB
Format: functional
measured metric: MIC

See these solved cases before continuing.
CC[C@H]1OC(=O)[C@H](C)[C@@H](O[C@H]2C[C@@](C)(OC)[C@@H](O)[C@H](C)O2)[C@H](C)[C@@H](O[C@@H]2O[C@H](C)C[C@H](N(C)C)[C@H]2O)[C@](C)(OC/C=C/c2ccccc2)C[C@@H](C)C(=O)[C@H](C)[C@@H](O)[C@]1(C)O    32 µg/mL
CC[C@H]1OC(=O)[C@H](C)C(=O)[C@H](C)[C@@H](O[C@@H]2O[C@H](C)C[C@H](N(C)C)[C@H]2O)[C@](C)(OC/C=C/c2cnc3ccncc3c2)C[C@@H](C)C(=O)[C@H](C)[C@H]2NC(=O)O[C@@]21C    4 µg/mL

input: For the compound shown here, `C=CCO[C@]1(C)C[C@@H](C)C(=O)[C@H](C)[C@H]2N(C)C(=O)O[C@]2(C)[C@@H](CC)OC(=O)[C@H](C)C(=O)[C@H](C)[C@H]1O[C@@H]1O[C@H](C)C[C@H](N(C)C)[C@H]1O` , give the reported MIC.
output: > 128 µg/mL

input: Quick check: MIC of `C=CCO[C@]1(C)C[C@@H](C)C(=O)[C@H](C)[C@H]2NC(=O)O[C@]2(C)[C@@H](CC)OC(=O)[C@H](C)C(=O)[C@H](C)[C@H]1O[C@@H]1O[C@H](C)C[C@H](N(C)C)[C@H]1O` ?
output: > 64 µg/mL
